System: pigweed (Amaranthus retroflexus)
Assay: Preemergence herbicidal activity
Type: in vivo
Details: 17.5 g/Ha; scored after 3 weeks; 0 no injury, 100 complete kill or no germination
Assignment: determine reported Preemergence herbicidal activity AMARE for the given molecules.
Give bare numbers, in %.

Return reported Preemergence herbicidal activity AMARE values for all items listed beneath this line.
1. COc1cc(OC)n2nc(NS(=O)(=O)c3c(OC(C)C)cccc3C(F)(F)F)nc2n1
2. CCOc1cccc(C(F)(F)F)c1S(=O)(=O)Nc1nc2nc(OC)cc(OC)n2n1
3. COc1cc(OC)n2nc(NS(=O)(=O)c3c(OCCF)cccc3C(F)(F)F)nc2n1
4. COc1cc(OC)n2nc(NS(=O)(=O)c3c(OCC(F)F)cccc3C(F)(F)F)nc2n1

Ans.
1. 100
2. 95
3. 100
4. 100

The values you see were collected from patent US6559101B2.
